B1: Kinesin-like protein KIF16B, residues 1213 to 1273; numbered along this chain, Q96L93 (parent)
chain: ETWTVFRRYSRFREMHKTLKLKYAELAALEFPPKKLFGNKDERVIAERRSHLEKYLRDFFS

# Variants of: B1
# Procedure text: abundance fitness (aPCA) (normalised: wild type 0, dead -1); higher = more abundant; growth selection in yeast, the domain comes from the species named
# Details: Homo sapiens
Readout label: abundance fitness
Please give only the number in your answer, with no unit.

What does the record list as abundance fitness for V44P ?
0.299

What value of abundance fitness has been reported for the following variant? K20G
-0.676

For the variant V44T , what abundance fitness is on record?
0.263

I am curious: what abundance fitness value has been reported for P33S ?
0.022

Entry R7C has what abundance fitness?
0.084

Name the recorded abundance fitness for L19F .
-0.146

Which abundance fitness value is on record for G38S ?
-0.234

Recorded abundance fitness of D41V , please.
0.159

Item D41E has what recorded abundance fitness?
-0.07

Please report the recorded abundance fitness for R13D .
0.391

Would you kindly share the measured abundance fitness for F31G ?
-0.862

Fill in the blank: the reported abundance fitness of R48M is ____.
0.159
